The entries below are paired with their reported normalized growth.
Experiment: chemical genetic growth profiling, strain panel (AID 1159580);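 also: tested at 20 µM; growth read once vehicle control cultures reached saturation at 30 °C; 1 = growth at the plate median or of vehicle wells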
Settings: S. cerevisiae deletion strains, growth OD, locus YMR129W, stronger effect = lower value
Among all 5,500 compounds or so, about 2,000 (36%) were called active. Another 18% or so got no clear call; they are omitted. Some of the results follow.
REPORTED_METRIC: normalized growth

molecule=NCCc1cnc[nH]1 reported_metric="normalized growth" number=1.02
molecule="C[C@]12CCC(=O)C=C1C=CC1C2CC[C@@]2(C)C1CC[C@@]2(O)CCC(=O)O (stereo not given in full)" reported_metric="normalized growth" number=1.03
molecule="CC(=O)S[C@@H]1CC2=CC(=O)CC[C@]2(C)[C@H]2CC[C@@]3(C)[C@@H](CC[C@@]34CCC(=O)O4)C12 (stereo not given in full)" reported_metric="normalized growth" number=1.01
molecule=O=C(O)/C=C/c1ccc(O)c(O)c1 reported_metric="normalized growth" number=1
molecule=CCN(CC)C(=O)N1CCN(C)CC1 reported_metric="normalized growth" number=0.964
molecule=NCCS(=O)(=O)O reported_metric="normalized growth" number=0.978
molecule="O=C(/C=C/c1ccc(O)c(O)c1)OC(Cc1ccc(O)c(O)c1)C(=O)O (stereo not given)" reported_metric="normalized growth" number=1.02
molecule="C[C@]12CCC(=O)C=C1C=CC1C2CC[C@@]2(C)C1CC[C@@]21CCC(=O)O1 (stereo not given in full)" reported_metric="normalized growth" number=0.973
molecule="CN(C)CCCC1(c2ccc(F)cc2)OCc2cc(C#N)ccc21 (stereo not given)" reported_metric="normalized growth" number=0.999
molecule=Cc1ccc(C(=O)Nc2ccc(S(=O)(=O)O)c3cc(S(=O)(=O)O)cc(S(=O)(=O)O)c23)cc1NC(=O)c1cccc(NC(=O)Nc2cccc(C(=O)Nc3cc(C(=O)Nc4ccc(S(=O)(=O)O)c5cc(S(=O)(=O)O)cc(S(=O)(=O)O)c45)ccc3C)c2)c1 reported_metric="normalized growth" number=1.01

----------
The entries below are paired with their reported normalized growth.
Assay: chemical genetic growth profiling, strain panel (AID 1159580);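 also: tested at 20 µM; growth read once vehicle control cultures reached saturation at 30 °C; 1 = growth at the plate median or of vehicle wells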
Details: S. cerevisiae deletion strains, growth OD, locus YAL026C, strain drs2, stronger effect = lower value
In all, about 5,500 compounds went through this assay and about 2,000 (36%) were called active. Inconclusive results (about 18%) are left out. This is one part of the list.
REPORTED_METRIC: normalized growth

compound="CN1C2CCC1CC(OC(c1ccccc1)c1ccccc1N)C2 (configuration not stated)" reported_metric="normalized growth" number=1.01
compound=O=C1NCC2(CCN(CCc3ccccc3)CC2)O1 reported_metric="normalized growth" number=0.99
compound="CC1(O)CC2C(CC1O)C2(C)C (configuration not stated)" reported_metric="normalized growth" number=1
compound=COC(=O)c1cc(=O)c(O)c2c(O)c(O)ccc2c1 reported_metric="normalized growth" number=0.968
compound=NS(=O)(=O)c1cc2c(cc1Cl)NC=NS2(=O)=O reported_metric="normalized growth" number=1.01
compound=COc1ccc(C(=O)CC(=O)O)c2c1C=CC(C)(C)O2 reported_metric="normalized growth" number=1
compound=CNC(=O)O/N=C(\C)SC reported_metric="normalized growth" number=1
compound=CC1(C)S[C@@H]2[C@H](NC(=O)[C@H](N)c3ccccc3)C(=O)N2[C@H]1C(=O)O reported_metric="normalized growth" number=0.971
compound="CC(=O)O[C@H]1C[C@@H](OC(C)=O)C(C)(C)C2CC(=O)[C@]3(C)C(CC[C@@]4(C)[C@H](C(=O)O)OC(=O)C5OC543)[C@]21C (some centres not stated)" reported_metric="normalized growth" number=0.98
compound=O=c1cccc2ccc(O)c(O)c2c1O reported_metric="normalized growth" number=0.791
compound=CN1CC(=O)N=C1N reported_metric="normalized growth" number=1.03
compound=Cc1[nH]c2ccccc2c1CN(C)C reported_metric="normalized growth" number=1.03

----------
Assay: chemical genetic growth profiling, strain panel (AID 1159580);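 also: tested at 20 µM; growth read once vehicle control cultures reached saturation at 30 °C; 1 = growth at the plate median or of vehicle wells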
Details: S. cerevisiae deletion strains, growth OD, locus YMR129W, stronger effect = lower value
About 2,000 (36%) of roughly 5,500 compounds were called active. Inconclusive results (about 18%) are left out. The list shows a part of the results.
REPORTED_METRIC: normalized growth

molecule=C=CCc1ccc(OC)cc1 number=1.02
molecule=C=CCc1ccc(O)c(OC)c1 number=0.984
molecule=Nc1ncn[nH]1 number=1.01
molecule="Cc1ccccc1C(OCCN(C)C)c1ccccc1 (stereo not drawn)" number=1.01
molecule="Clc1ccc(C(OCCN2CCCCC2)c2ccccc2)cc1 (stereo not drawn)" number=1.03
molecule=COc1ccc(C(=O)O)cc1OC number=0.93
molecule=Oc1cc(O)c2c(c1)O[C@H](c1ccc(O)c(O)c1)[C@@H](O)C2 number=1.02
molecule=O=S(=O)(O)c1cc(N=C=S)ccc1/C=C/c1ccc(N=C=S)cc1S(=O)(=O)O number=1.02
molecule=CCC[C@H](N[C@@H](C)C(=O)N1[C@H](C(=O)O)C[C@@H]2CCCC[C@@H]21)C(=O)OCC number=1.02
molecule=O=C1NCC2(CCN(CCc3ccccc3)CC2)O1 number=0.98
molecule=CN1CCC(OC(c2ccccc2)c2ccccc2)CC1 number=0.977
molecule=Oc1cc(O)c2c(c1)O[C@H](c1cc(O)c(O)c(O)c1)[C@H](O)C2 number=1.02
molecule="CN(C)CCOC(c1ccc(Cl)cc1)c1ccccn1 (stereo not drawn)" number=1.03

----------
Test: chemical genetic growth profiling, strain panel (AID 1159580);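 also: tested at 20 µM; growth read once vehicle control cultures reached saturation at 30 °C; 1 = growth at the plate median or of vehicle wells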
Settings: S. cerevisiae deletion strains, growth OD, locus YJR066W, strain TOR1
The whole screen tested about 5,500 compounds, of which about 2,000 (36%) were called active. Roughly 18% stayed inconclusive and do not appear here. No stated cut-off is given here; in the data, active means normalized growth mostly below about 0.91 (no sharp cut-off); inconclusive means no clear call, values can overlap the other calls; inactive means mostly above about 0.92. This is one part of the list.
Classes used: yes = active, no = inactive

molecule=CCN(CC)C(=O)N1CCN(C)CC1 class_label=no
molecule="CC[C@]1(O)CC2CN(CCc3c([nH]c4ccccc34)[C@@](C(=O)OC)(c3cc4c(cc3OC)N(C)[C@H]3[C@@](O)(C(=O)OC)[C@H](OC(C)=O)[C@]5(CC)C=CCN6CC[C@]43[C@@H]65)C2)C1 (some centres undefined)" class_label=no
molecule="CCCCC/C=C/CCC(=O)N[C@H]1[C@H](Oc2c3cc4cc2Oc2ccc(cc2Cl)[C@@H](O[C@@H]2O[C@H](CO)[C@@H](O)[C@H](O)[C@H]2NC(C)=O)[C@@H]2NC(=O)[C@H](NC(=O)[C@@H]4NC(=O)[C@H]4NC(=O)C(Cc5ccc(c(Cl)c5)O3)NC(=O)[C@H](N)c3ccc(O)c(c3)Oc3cc(O)cc4c3)c3ccc(O)c(c3)-c3c(OC4O[C@H](CO)[C@@H](O)[C@H](O)[C@@H]4O)cc(O)cc3[C@@H](C(=O)O)NC2=O)O[C@H](CO)[C@@H](O)[C@@H]1O (some centres undefined)" class_label=no
molecule=O=C(Nc1cccc(C(F)(F)F)c1)c1cncc(C#Cc2ccccc2)c1 class_label=no
molecule=OC[C@@H](O)[C@@H](O)[C@H](O)[C@@H](O)CO class_label=no
molecule="COc1ccc(C(CN(C)C)C2(O)CCCCC2)cc1 (centres undefined)" class_label=no
molecule=Oc1cc(O)c2c(c1)O[C@H](c1ccc(O)c(O)c1)[C@@H](O)C2 class_label=no
molecule=CC1(C)CC(=O)C=C(Sc2nc3ccccc3o2)C1 class_label=no
molecule="CC1CCc2cc(F)cc3c(=O)c(C(=O)O)cn1c23 (centres undefined)" class_label=no
molecule="C[C@@H]1CC(Cl)CC[C@H]1C(=O)OC(C)(C)C (some centres undefined)" class_label=no
molecule=C=CCc1ccc(OC(=O)c2ccccc2)c(OC)c1 class_label=no
molecule=O=C(c1csc(-c2ccc(Cl)cc2)c1)N1CCCCC1 class_label=no
molecule="CCn1cc(C(=O)O)c(=O)c2cc(F)c(N3CCNC(C)C3)c(F)c21 (centres undefined)" class_label=no
molecule="CC1COc2c(N3CCN(C)CC3)c(F)cc3c(=O)c(C(=O)O)cn1c23 (centres undefined)" class_label=no
molecule=Nc1nc(=S)c2[nH]cnc2[nH]1 class_label=no
molecule=COc1ccc(C(=O)CC(=O)O)c2c1C=CC(C)(C)O2 class_label=no
molecule=O=C(c1ccc(OCCN2CCCCC2)cc1)c1c(-c2ccc(O)cc2)sc2cc(O)ccc12 class_label=no
molecule="CCOC(=O)C1C(c2c(F)cccc2Cl)C(C(=O)OCC)C(O)(C(F)(F)F)NC1(O)C(F)(F)F (centres undefined)" class_label=no
molecule=C=CCc1ccc(O)c(OC)c1 class_label=no
molecule="O=C(/C=C/c1ccc(O)c(O)c1)OC(Cc1ccc(O)c(O)c1)C(=O)O (centres undefined)" class_label=no
molecule=C[C@H]1COc2c(N3CCN(C)CC3)c(F)cc3c(=O)c(C(=O)O)cn1c23 class_label=no
molecule="C=CC[C@]1(O)CCC2C3CCC4=CC(=O)CCC4=C3C=C[C@@]21C (some centres undefined)" class_label=no
molecule=O=C1C(Cl)=C(Cl)C(=O)C(Cl)=C1Cl class_label=yes
molecule=N#C/C(=N/Nc1ccc(F)cc1)S(=O)(=O)c1ccc(Cl)cc1 class_label=no
molecule=CCC[C@H](N[C@@H](C)C(=O)N1[C@H](C(=O)O)C[C@@H]2CCCC[C@@H]21)C(=O)OCC class_label=no
molecule="O=C1CCC(N2C(=O)c3ccccc3C2=O)C(=O)N1 (centres undefined)" class_label=no
molecule=Oc1cc(O)c2c(c1)O[C@H](c1ccc(O)c(O)c1)[C@H](O)C2 class_label=no
molecule=CC(=O)c1ccc(Cl)c(NS(=O)(=O)c2cc(Cl)c(Cl)cc2Cl)c1 class_label=no
molecule=O=C(O)c1cc2cc(F)ccc2[nH]1 class_label=no
molecule=O=C(/C=C/c1ccc(O)c(O)c1)OCCc1ccccc1 class_label=yes
molecule="CN1C2CCC1CC(OC(c1ccccc1)c1ccccc1N)C2 (centres undefined)" class_label=no
molecule="COc1c(N2CCNC(C)C2)c(F)cc2c(=O)c(C(=O)O)cn(C3CC3)c12 (centres undefined)" class_label=no
molecule=c1ccc2c(c1)sc1ccccc12 class_label=no
molecule=C=CCc1ccc(OC)cc1 class_label=no
molecule=O=[N+]([O-])c1ccc(-c2noc(-c3ccno3)n2)o1 class_label=yes
molecule=N#C/C(=N/Nc1ccccc1)C(=O)c1ccccc1OC(F)(F)F class_label=no
molecule=N#C/C(=N/Nc1ccc(F)cc1)C(=O)c1ccccc1 class_label=no
molecule="COC(=O)C[C@H]1C2(C)CC34OC5(C)O[C@@]6([C@H](OC(C)=O)C(OC(C)=O)[C@]7(C)C(/C(=C(/O)C(C)C)C(=O)O[C@H]7c7ccoc7)[C@@]6(O5)[C@H](OC(C)=O)[C@@]3(O)C2OC(=O)C(C)C)[C@]14C (some centres undefined)" class_label=no
molecule=COc1ccc2c(c1)OC/C(=C/c1ccc(OC)c(OC)c1)C2=O class_label=no
